The values you see were collected from patent US20200131180A1.

Biological target: human mAChR M1 (Homo sapiens)
Sequence (P11229 1-460): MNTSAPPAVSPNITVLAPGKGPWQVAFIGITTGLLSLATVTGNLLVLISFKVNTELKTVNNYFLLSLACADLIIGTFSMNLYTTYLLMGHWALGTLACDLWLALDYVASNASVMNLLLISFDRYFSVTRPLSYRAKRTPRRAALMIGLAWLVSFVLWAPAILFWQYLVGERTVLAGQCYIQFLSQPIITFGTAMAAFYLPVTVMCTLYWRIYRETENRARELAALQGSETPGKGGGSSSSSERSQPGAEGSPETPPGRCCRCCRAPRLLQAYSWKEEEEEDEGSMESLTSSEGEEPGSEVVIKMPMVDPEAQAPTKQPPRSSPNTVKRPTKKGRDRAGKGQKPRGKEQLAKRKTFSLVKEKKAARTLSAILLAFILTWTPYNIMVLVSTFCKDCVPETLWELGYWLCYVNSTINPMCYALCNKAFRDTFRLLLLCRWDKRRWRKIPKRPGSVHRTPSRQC
Test: mAChR M1 cell-based functional assay (calcium mobilization, PAM activity)
Details: CHO-K1 cells expressing hM1; calcium flux (Fluo-4); potentiation of EC20 acetylcholine response
Procedure: Chinese hamster ovary (CHO-K1) cells stably expressing rat (r)M1 were purchased from the American Type Culture Collection and cultured according to their indicated protocol. […] Calcium flux was measured using the Functional Drug Screening System (FDSS) 6000 (Hamamatsu Corporation, Tokyo, Japan) as an increase in the fluorescent static ratio. […] Agonist activity was analyzed as a concentration-dependent increase in calcium mobilization upon compound addition. […]
Assay Endpoint: Emax (%)
Answer with a number only, understood to be in %.

- Cc1nc(-c2ccc(Cc3cc(C(=O)N[C@H]4CCCC[C@@H]4O)c4ncnn4c3)cc2)co1 [compound 32]: 87
- Cn1ccc(-c2ccc(Cc3cc(C(=O)N[C@H]4CCOC[C@@H]4O)c4ncnn4c3)c(F)c2)n1 [compound 45]: 82

Prompt: Notebook entry, human mAChR M1 (Homo sapiens) assay: Emax of Cn1cc(-c2ccc(Cc3cc(C(=O)N[C@H]4CCOC[C@@H]4O)c4ncnn4c3)c(F)c2)cn1 [compound 47] = ?
Response: 77

Prompt: Notebook entry, human mAChR M1 (Homo sapiens) assay: Emax of O=C(N[C@H]1CCC[C@@H]1O)c1cc(Cc2ccc(-n3cccn3)cc2)cn2ccnc12 [compound 24] = ?
Response: 76

###

Target: human mAChR M1 (Homo sapiens, UniProt P11229)
Experiment: mAChR M1 cell-based functional assay (calcium mobilization, PAM activity)
Details: CHO-K1 cells expressing hM1; calcium flux (Fluo-4); potentiation of EC20 acetylcholine response
Method: Chinese hamster ovary (CHO-K1) cells stably expressing rat (r)M1 were purchased from the American Type Culture Collection and cultured according to their indicated protocol. […] Calcium flux was measured using the Functional Drug Screening System (FDSS) 6000 (Hamamatsu Corporation, Tokyo, Japan) as an increase in the fluorescent static ratio. […] Agonist activity was analyzed as a concentration-dependent increase in calcium mobilization upon compound addition. […]
Cut-off 80% on Emax: below means Y, at or above means N.

Please review the entries below; each comes with its answer.
* Cn1cc(-c2ccc(Cc3cc(C(=O)N[C@H]4CCCC[C@@H]4O)c4ncnn4c3)c(F)c2)cn1 | Y
* Cc1nc(-c2ccc(Cc3cc(C(=O)NC4CCOCC4)c4ncnn4c3)cc2)co1 | Y
* Cn1cc(-c2cc(F)c(Cc3cc(C(=O)N[C@H]4CCCC[C@@H]4O)c4nccn4c3)c(F)c2)cn1 | Y

Consider the record given below.
Prompt: Is Emax of `O=C(N[C@H]1CCOC[C@@H]1O)c1cc(Cc2ccc(-n3cccn3)cc2)cn2ncnc12` strictly below 80%?
Response: N
